biological target: human MRGPR X4 (Homo sapiens); construct: expressed in transfected cells; test: MRGPR X4 antagonist activity, IP-One Gq HTRF assay in stably transfected HEK cells; assay type: cell-based
Sequence (Q96LA9 whole entry): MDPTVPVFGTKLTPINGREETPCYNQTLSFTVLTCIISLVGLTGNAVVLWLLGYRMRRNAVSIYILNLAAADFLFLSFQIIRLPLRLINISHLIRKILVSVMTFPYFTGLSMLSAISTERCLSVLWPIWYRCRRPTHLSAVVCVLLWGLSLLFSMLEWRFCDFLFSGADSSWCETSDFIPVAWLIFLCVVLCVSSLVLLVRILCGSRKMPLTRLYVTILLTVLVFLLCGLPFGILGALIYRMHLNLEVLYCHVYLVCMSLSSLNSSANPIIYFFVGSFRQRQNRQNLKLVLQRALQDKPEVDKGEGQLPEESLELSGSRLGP
metric: IC50

{"compound": "Cc1ccc(Cn2nc(C(=O)NCCc3cccnc3)c3cc(Cl)ccc32)cc1 [Compound 27]", "test system": "human MRGPR X4 (Homo sapiens)", "metric": "IC50", "reported": "< 100 nM"}
{"compound": "Cc1ccc(Cn2cc(C(=O)NCCc3ccnn3C)c3ccccc32)cc1 [Compound 187]", "test system": "human MRGPR X4 (Homo sapiens)", "metric": "IC50", "reported": "501 to 1000 nM"}
{"compound": "O=C(NCCc1ccc2c(c1)OCO2)c1nn(Cc2ccc(Cl)cc2)c2ccccc12 [Compound 342]", "test system": "human MRGPR X4 (Homo sapiens)", "metric": "IC50", "reported": "501 to 1000 nM"}
{"compound": "O=C(NCc1cn2cccnc2n1)c1nn(Cc2ccc(Cl)cc2)c2ccccc12 [Compound 368]", "test system": "human MRGPR X4 (Homo sapiens)", "metric": "IC50", "reported": "100 to 500 nM"}
{"compound": "Cc1ccc(Cn2cc(C(=O)NCCc3nc4c(s3)CCCC4)c3ccccc32)cc1 [Compound 165]", "test system": "human MRGPR X4 (Homo sapiens)", "metric": "IC50", "reported": "100 to 500 nM"}
{"compound": "CCOc1ccc(CCNC(=O)c2nn(Cc3ccc(Cl)cc3)c3ccccc23)cc1 [Compound 365]", "test system": "human MRGPR X4 (Homo sapiens)", "metric": "IC50", "reported": "> 2500 nM"}
{"compound": "CNC(=O)c1cccc(CNC(=O)c2nn(Cc3ccc(Cl)cc3)c3ccccc23)c1 [Compound 399]", "test system": "human MRGPR X4 (Homo sapiens)", "metric": "IC50", "reported": "> 2500 nM"}
{"compound": "O=C(NCCc1nnc2ccccn12)c1nn(Cc2cc3ccccc3o2)c2ccccc12 [Compound 496]", "test system": "human MRGPR X4 (Homo sapiens)", "metric": "IC50", "reported": "< 100 nM"}
{"compound": "O=C(NCCc1nnc2ccccn12)c1nn(Cc2ccc3ncccc3c2)c2ccccc12 [Compound 458]", "test system": "human MRGPR X4 (Homo sapiens)", "metric": "IC50", "reported": "501 to 1000 nM"}
{"compound": "O=C(NCCc1nnc2ccccn12)c1nn(Cc2ccc(-n3cccn3)cc2)c2ccccc12 [Compound 461]", "test system": "human MRGPR X4 (Homo sapiens)", "metric": "IC50", "reported": "1000 to 2500 nM"}
{"compound": "Cc1ccc(Cn2cc(C(=O)NCc3ccccn3)c3ccccc32)cc1 [Compound 229]", "test system": "human MRGPR X4 (Homo sapiens)", "metric": "IC50", "reported": "> 2500 nM"}
{"compound": "CC(C)(O)c1cn(CCNC(=O)c2nn(Cc3ccc(Cl)cc3)c3ccccc23)nn1 [Compound 140]", "test system": "human MRGPR X4 (Homo sapiens)", "metric": "IC50", "reported": "501 to 1000 nM"}
{"compound": "O=C(NCCc1ccc(Cl)c(F)c1)c1cn(Cc2ccc(C(F)(F)F)cc2)c2ccccc12 [Compound 209]", "test system": "human MRGPR X4 (Homo sapiens)", "metric": "IC50", "reported": "1000 to 2500 nM"}
{"compound": "COc1ncccc1CCNC(=O)c1cn(Cc2cccc(F)c2)c2ccccc12 [Compound 203]", "test system": "human MRGPR X4 (Homo sapiens)", "metric": "IC50", "reported": "1000 to 2500 nM"}
{"compound": "COc1cc(Cn2nc(C(=O)O)c3ccccc32)ccc1Cl [Compound 329]", "test system": "human MRGPR X4 (Homo sapiens)", "metric": "IC50", "reported": "> 2500 nM"}
{"compound": "O=C(NCCc1cccnc1)c1cn(Cc2cccc(Cl)c2)c2ccccc12 [Compound 195]", "test system": "human MRGPR X4 (Homo sapiens)", "metric": "IC50", "reported": "501 to 1000 nM"}
{"compound": "O=C(NCCc1cnccn1)c1nn(Cc2ccc(Cl)cc2)c2ccccc12 [Compound 348]", "test system": "human MRGPR X4 (Homo sapiens)", "metric": "IC50", "reported": "1000 to 2500 nM"}
{"compound": "CC(C)c1ccc(Cn2nc(C(=O)O)c3ccccc32)cc1 [Compound 323]", "test system": "human MRGPR X4 (Homo sapiens)", "metric": "IC50", "reported": "1000 to 2500 nM"}
